In this section we review reported melting point values for a set of compounds.

compound	melting point
C=C(Nc1nc(-c2ccccc2)c(-c2nc3ccccc3c(=O)n2-c2ccccc2C)s1)c1ccco1	262 to 263 °C

Reported melting point for "COCCCn1c(C(N)=O)cc2c3c(c(-c4ccccc4Cl)cc21)C(=O)NC3=O" : what is it?
260 to 261 °C

Reported melting point for "COCOc1ccc([N+](=O)[O-])c(C=O)c1" : what is it?
68 to 69 °C

Reported melting point for "COc1cc(CCNc2ncnc3scnc23)ccc1Oc1c(F)cnc(C(F)(F)F)c1F" : what is it?
108 to 112 °C

Reported melting point for "O=C1CCC(O)(c2ccc(Cl)cc2)CC1" : what is it?
138 to 139 °C

Reported melting point for CN(Cc1cccc(-c2ccc(CC3SC(=O)NC3=O)cc2)c1)C(=O)c1cc(Cl)cc(Cl)c1 (stereo not given) : what is it?
106 °C

Reported melting point for "Nc1ccc([N+](=O)[O-])cc1S(N)(=O)=O" : what is it?
202 to 204 °C

Reported melting point for "FC(F)(F)c1ccc(Cl)cc1CN1CCNc2ncc(I)cc21" : what is it?
189 to 191 °C

Reported melting point for "NC(=O)c1sc2nccc(N3CCOCC3)c2c1N" : what is it?
232 to 234 °C

Reported melting point for "CC(C)Nc1nc(-c2ccccc2)c(-c2ccc(=O)n(C(C)C)n2)s1" : what is it?
138 to 139 °C
